assay info: Pharmacokinetic evaluation in C57BL/6 mice after intravenous and oral administration
Type: in vivo
condition summary: male, mouse, plasma, IV 1 mg/kg, oral 2 mg/kg, route of Cmax not stated, read-out: max concentration Cmax
endpoint label: Cmax (ng/mL)
Report as a plain number; the unit ng/mL is understood.

# example entries with known answers
{"molecule": "CC1(c2nc(C3(CN[C@@H]4C[C@H]4c4ccccc4)CC3)no2)CCC(N)CC1 (some centres unmarked) [Example 224]", "Cmax, ng/mL": 58.5}
{"molecule": "N[C@H]1CC[C@H](c2nc(C3(CN[C@@H]4C[C@H]4c4ccccc4)CC3)no2)CC1 [Example 144]", "Cmax, ng/mL": 25.3}
{"molecule": "O=C(O)[C@@H]1CCCN1CC1(CN[C@H]2CC2c2ccccc2)CC1 (some centres unmarked) [Example 210]", "Cmax, ng/mL": 815}
{"molecule": "N[C@H]1CC[C@H](c2cc(C3(CN[C@@H]4C[C@H]4c4ccccc4)CC3)no2)CC1 [Example 241]", "Cmax, ng/mL": 49.5}

### Prompt Suppose we examine the molecule O=C(O)c1ccc(CN2CCC(c3nc(C4(CN[C@@H]5CC5c5ccccc5)CC4)no3)CC2)cc1 (some centres unmarked) [Example 169] ; what Cmax value has been reported?
### Response 763

Hello, the source for this data is patent US11433053B2, in case you need it.
